Would you mind telling me the reported IC50 of each entry?
molecular target: ALK (baculovirus expressed human ALK kinase domain F1098-K1410) (Homo sapiens); construct: human ALK kinase domain F1098-K1410; made in house; assay: biochemical; conditions: 1 μM ATP, 4 μM poly-AEKY, 12 nM ALK, 2 hours at ambient temperature; read-out: ALK IC50
Sequence (Q9UM73 1098-1410): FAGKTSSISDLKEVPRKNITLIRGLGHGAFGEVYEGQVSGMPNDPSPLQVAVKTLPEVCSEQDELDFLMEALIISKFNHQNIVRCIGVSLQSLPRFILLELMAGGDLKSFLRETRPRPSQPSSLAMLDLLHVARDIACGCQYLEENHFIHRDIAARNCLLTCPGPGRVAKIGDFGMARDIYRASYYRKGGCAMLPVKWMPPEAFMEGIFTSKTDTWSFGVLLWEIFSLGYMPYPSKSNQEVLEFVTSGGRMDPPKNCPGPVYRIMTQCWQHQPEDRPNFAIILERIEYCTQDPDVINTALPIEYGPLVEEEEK

Some solved cases for reference:
Query :: # get_value(readout='IC50', item= `O=C(COc1ccc(OC(F)(F)F)cc1)NCc1nc(C(=O)N[C@@H]2C[C@H]3CC[C@@H]2C3)cs1` )
Result :: 50 to 500 nM

Query :: Item under review: `O=C(COc1ccc(OC(F)(F)F)cc1)NCc1nc(C(=O)NCc2cccnc2)cs1` . Reported IC50?
Result :: 500 to 2000 nM

Field: IC50. Fill in for each record below.
1. O=C(COc1ccc(OC(F)(F)F)cc1)NCc1nc(C(=O)NCc2ccccc2Cl)cs1
2. O=C(COc1ccc(OC(F)(F)F)cc1)NCc1nc(C(=O)NCc2cccc(C(F)(F)F)c2)cs1
3. O=C(COc1ccc(OC(F)(F)F)cc1)NCc1nc(C(=O)NCc2cccc(F)c2)cs1

Result ::
1. 50 to 500 nM
2. 50 to 500 nM
3. 50 to 500 nM

For each entry beneath this line, provide reported IC50.
1. O=C(COc1ccc(OC(F)(F)F)cc1)NCc1nc(C(=O)NCCc2cccs2)co1
2. O=C(NCCc1cccc(Cl)c1)c1csc(CNC(=O)c2cccnc2Oc2ccc(F)cc2)n1
3. O=C(COc1ccc(OC(F)(F)F)cc1)NCc1nc(C(=O)NCCc2ccccc2Cl)cs1
4. COc1ccccc1CNC(=O)c1csc(CN)n1
5. O=C(COc1ccc(OC(F)(F)F)cc1)NCc1nc(C(=O)NCCN2CCCC2)cs1

Result ::
1. 50 to 500 nM
2. 50 to 500 nM
3. 50 to 500 nM
4. > 2000 nM
5. 500 to 2000 nM

For the 5 molecules below, give their IC50 values.
1. O=C(COc1ccc(OC(F)(F)F)cc1)NCc1nc(C(=O)Nc2ccc(C(=O)O)c(O)c2)cs1
2. O=C(COc1ccc(OC(F)(F)F)cc1)NCc1nc(C(=O)NCCCN2CCCC2=O)cs1
3. NCc1nc(C(=O)NCCc2ccccc2F)cs1
4. CC1CCCCC1NC(=O)c1coc(CNC(=O)COc2ccc(OC(F)(F)F)cc2)n1 (centres unmarked)
5. O=C(COc1ccc(OC(F)(F)F)cc1)NCc1nc(C(=O)NCc2ccccc2)co1

Result ::
1. 50 to 500 nM
2. 500 to 2000 nM
3. > 2000 nM
4. 500 to 2000 nM
5. 500 to 2000 nM

Can you give me IC50 for all of these, one by one?
1. CC(CCc1ccccc1)NC(=O)c1csc(CNC(=O)COc2ccc(OC(F)(F)F)cc2)n1 (centres unmarked)
2. COc1ccc(CNC(=O)c2csc(CNC(=O)COc3ccc(OC(F)(F)F)cc3)n2)cc1OC
3. CC(C)c1ccc(CC(=O)NCc2nc(C(=O)NCCc3cccc(Cl)c3)cs2)cc1
4. O=C(COc1ccc(OC(F)(F)F)cc1)NCc1nc(C(=O)N2CC[C@@H]3CCCC[C@@H]3C2)cs1
5. CC(C)(C)CC(C)(C)NC(=O)c1csc(CNC(=O)COc2ccc(OC(F)(F)F)cc2)n1

Result ::
["50 to 500 nM", "50 to 500 nM", "50 to 500 nM", "500 to 2000 nM", "50 to 500 nM"]

Okay, here is my list. What is IC50 for each of these?
1. O=C(COc1ccc(OC(F)(F)F)cc1)NCc1nc(C(=O)NCc2ccc(Cl)cc2Cl)cs1
2. O=C(COc1ccc(OC(F)(F)F)cc1)NCc1nc(C(=O)NC2CCCCC2)cs1
3. C[C@@H](NC(=O)c1csc(CNC(=O)COc2ccc(OC(F)(F)F)cc2)n1)C(C)(C)C

Result ::
50 to 500 nM
50 to 500 nM
500 to 2000 nM
